Origin of the recorded values: PubChem BioAssay (NCATS)

# Test system: W2
# Protocol summary: qHTS profiling for inhibitors of Plasmodium falciparum proliferation (AID 504749); note: nearly all actives have a fitted effect of over 60% in size
# Details: P. falciparum in erythrocytes, SYBR Green DNA, 72 h; series mostly up to 28.7 µM
# Procedure: NIH National Institute of Allergy and Infectious Diseases [NIAID] NIH Chemical Genomics Center [NCGC] […] Because mature erythrocytes lack DNA, only Plasmodium-derived DNA is detected. NCGC Assay Protocol Summary: The SYBR Green viability assay was adapted from a method described previously (Plouffe et al., 2008). […] The following morning, fluorescence intensity at 485(14) nm excitation and 535(25) nm emission wavelengths was measured on an EnVision (Perkin Elmer) plate reader. […]
Records with an inconclusive call do not appear. Calls of active or inactive are those of the source. Calls come from the whole dose curve; as a rule, active = well fitted inhibition curve with a large enough effect; inconclusive = small, poorly fitted or top-dose-only effect; inactive = flat fitted curve, though single readings scatter.
Mark one answer only. Choices: label 1 = active, label 0 = inactive

Some solved cases for reference:
Molecule: CN(C)c1ccc(C(=C2C=CC(=[N+](C)C)C=C2)c2c(O)c(S(=O)(=O)[O-])cc3cc(S(=O)(=O)O)ccc23)cc1
Class label: label 0
//
Molecule: CC(C)C1=CC2=CC[C@@H]3[C@](C)(CCC[C@@]3(C)C(=O)O)[C@H]2CC1
Class label: label 0
//
Molecule: OCc1ccccc1
Class label: label 1
//
Molecule: O=C(CCCCCCCCCCCCC1CCCC1)Nc1ccc(S(=O)(=O)c2ccc(NC(=O)CCCCCCCCCCCCC3CCCC3)cc2)cc1
Class label: label 0
//
Molecule: CC1(O)CCC(C(C)(C)O)CC1 (configuration not stated)
Class label: label 0

Task: State the result this test recorded for Cc1cc(-c2ccc(N=Nc3c(S(=O)(=O)O)cc4cc(S(=O)(=O)O)cc(N)c4c3O)c(C)c2)ccc1N=Nc1c(S(=O)(=O)O)cc2cc(S(=O)(=O)O)cc(N)c2c1O .
Result: label 0

Task: State the result this test recorded for C(=C\c1ccncc1)/c1ccccc1 .
Result: label 0
